- Tested on: ATP;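 further: ATP exposure 15 min at 22 °C before imaging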
- assayText: switch fluorescence ratio, 500 uM ATP over buffer (Cy3 cluster intensity, sum of 5 cycles each) (fold (ratio)); higher = stronger signal-on switching upon ATP binding; sequences stand for … in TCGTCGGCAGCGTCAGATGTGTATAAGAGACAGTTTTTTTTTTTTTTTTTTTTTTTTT…TC
- measurementSetup: aptamer strand: ATP DNA aptamer (quencher-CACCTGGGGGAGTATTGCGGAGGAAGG + anchor), 100 nM annealed; ATP concentration: 500 uM
The reader will find reported switch fluorescence ratio values listed item by item below.
propertyLabel: switch fluorescence ratio

[[record]]
recordsequence = "AGGCGCTAT"
observedvalue = 1.04

[[record]]
recordsequence = "AGACGGTATT"
observedvalue = 1.06

[[record]]
recordsequence = "ATCACTCACT"
observedvalue = 1.18

[[record]]
recordsequence = "CAGTGAATGA"
observedvalue = 1.03

[[record]]
recordsequence = "AAAGCTATAT"
observedvalue = 1.12

[[record]]
recordsequence = "AGAGTGGAGG"
observedvalue = 1

[[record]]
recordsequence = "GTTGTTGAAG"
observedvalue = 1.01

[[record]]
recordsequence = "GCTTCGTGTT"
observedvalue = 1.05

[[record]]
recordsequence = "ACACTTGAAT"
observedvalue = 0.996

[[record]]
recordsequence = "TATGCGAGTC"
observedvalue = 0.952

[[record]]
recordsequence = "TGGACCTTTT"
observedvalue = 1.64

[[record]]
recordsequence = "TTTTGTGAAG"
observedvalue = 0.963

[[record]]
recordsequence = "ATTGTTTGGG"
observedvalue = 1.03

[[record]]
recordsequence = "TTTGAATATT"
observedvalue = 0.991

[[record]]
recordsequence = "TTCTCTGGGG"
observedvalue = 1.03

[[record]]
recordsequence = "CTCTGTTTGG"
observedvalue = 0.957

[[record]]
recordsequence = "CCAGTTGATA"
observedvalue = 0.991

[[record]]
recordsequence = "GTGTTGGTAT"
observedvalue = 1.01

[[record]]
recordsequence = "GCTCTTTGAA"
observedvalue = 1.01

[[record]]
recordsequence = "ACATTAGGGT"
observedvalue = 1.01

[[record]]
recordsequence = "TAGGGAGGTG"
observedvalue = 1.04

[[record]]
recordsequence = "CGGCTGGTAC"
observedvalue = 1.86

[[record]]
recordsequence = "TTCTAGGGGT"
observedvalue = 0.966

[[record]]
recordsequence = "GGTTGGGTTG"
observedvalue = 0.987

[[record]]
recordsequence = "GACTTCGAGC"
observedvalue = 1.02

[[record]]
recordsequence = "TGAGTTGGGG"
observedvalue = 0.967

[[record]]
recordsequence = "CGAACCTGGA"
observedvalue = 1.37

[[record]]
recordsequence = "GTTCAAGGAA"
observedvalue = 0.994

[[record]]
recordsequence = "GTGGAGAGGG"
observedvalue = 0.993

[[record]]
recordsequence = "TGTTCCGTAT"
observedvalue = 0.993

[[record]]
recordsequence = "TGATAGTAGT"
observedvalue = 1

[[record]]
recordsequence = "AAGGATAGGC"
observedvalue = 1

[[record]]
recordsequence = "AGTTTTTGAG"
observedvalue = 1

[[record]]
recordsequence = "TACGTTTACG"
observedvalue = 1.02

[[record]]
recordsequence = "CTGCCTTGTT"
observedvalue = 1

[[record]]
recordsequence = "GATGTTTTTC"
observedvalue = 0.97

[[record]]
recordsequence = "GCATGAAACT"
observedvalue = 1.03

[[record]]
recordsequence = "GGCATCATGT"
observedvalue = 1.01

[[record]]
recordsequence = "TCTATTAAGG"
observedvalue = 1

[[record]]
recordsequence = "CTTAATTATA"
observedvalue = 1.01

[[record]]
recordsequence = "TATCCAATCA"
observedvalue = 0.972

[[record]]
recordsequence = "TTTGTTGGGC"
observedvalue = 0.981

